Tested on: FGH
procedure text: Cytotoxicity assay (MTS)
Assay type: cell-based, human
setup conditions: 72 h MTS assay, normal fibroblasts
We begin with a simple list: items and their reported IC50.
endpoint: IC50

>>> result("O=C1CCCC2=C1C(c1ccc3c(c1)OCO3)c1ccc3ccccc3c1N2 (centres unmarked)")
"> 100 µM"
>>> result("O=C1CCCC2=C1C(c1cccs1)c1ccc3ccccc3c1N2 (racemic)")
"> 100 µM"

====

target entity: tubulin (Sus scrofa, UniProt P02550+P02554)
Sequence (P02550 whole entry): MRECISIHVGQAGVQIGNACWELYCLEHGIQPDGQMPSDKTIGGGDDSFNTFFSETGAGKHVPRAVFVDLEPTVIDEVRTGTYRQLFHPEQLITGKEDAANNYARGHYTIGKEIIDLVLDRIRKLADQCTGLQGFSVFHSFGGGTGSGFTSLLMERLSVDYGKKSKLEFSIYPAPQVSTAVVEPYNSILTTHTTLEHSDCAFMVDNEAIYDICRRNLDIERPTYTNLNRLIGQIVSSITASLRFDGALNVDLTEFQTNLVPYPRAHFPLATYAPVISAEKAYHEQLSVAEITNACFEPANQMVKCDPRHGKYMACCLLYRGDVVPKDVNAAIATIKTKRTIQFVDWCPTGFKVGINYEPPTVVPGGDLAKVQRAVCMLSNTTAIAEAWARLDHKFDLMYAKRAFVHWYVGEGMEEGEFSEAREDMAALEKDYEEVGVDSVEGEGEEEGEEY
Sequence (P02554 whole entry): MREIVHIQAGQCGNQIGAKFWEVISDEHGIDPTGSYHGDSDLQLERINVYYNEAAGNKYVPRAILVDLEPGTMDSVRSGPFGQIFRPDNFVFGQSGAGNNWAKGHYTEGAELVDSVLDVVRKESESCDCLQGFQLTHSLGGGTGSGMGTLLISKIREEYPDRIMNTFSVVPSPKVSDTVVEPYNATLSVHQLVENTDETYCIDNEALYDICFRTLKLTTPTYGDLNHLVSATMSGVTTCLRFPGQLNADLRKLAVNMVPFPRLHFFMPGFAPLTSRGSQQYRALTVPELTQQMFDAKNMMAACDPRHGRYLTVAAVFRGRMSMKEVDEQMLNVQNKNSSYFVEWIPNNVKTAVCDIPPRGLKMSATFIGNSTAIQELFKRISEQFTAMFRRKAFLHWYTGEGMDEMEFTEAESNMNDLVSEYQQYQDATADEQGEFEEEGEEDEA
procedure text: Fluorescence-based tubulin polymerization assay
Format: biochemical
setup conditions: read-out: IC50 Tubulin assembly
endpoint: IC50

>>> result("O=C1CCCC2=C1C(c1ccc3c(c1)OCO3)c1ccc3ccccc3c1N2 (stereo not shown) [Compound 6]")
"13 µM"

====

Overview of recorded IC50 at 72 h for various molecules
procedure text: Cytotoxicity assay (MTS)
Assay type: cell-based, human
setup conditions: human, FGH cells (normal fibroblasts); 72 h MTS assay, normal fibroblasts
endpoint: IC50 at 72 h

>>> result("COc1cc2c(c(OC)c1OC)-c1ccc(OC)c(=O)cc1[C@@H](NC(C)=O)CC2 [Colchicine, colchicine, reference compound]")
"< 0.02 µM"
>>> result("O=C1CCCC2=C1[C@@H](c1cccc([N+](=O)[O-])c1)c1ccc3ccccc3c1N2 [Compound 7]")
"> 100 µM"

====

Reported pIC50 values for the following compounds.
System: DU-145
procedure text: Cytotoxicity assay (MTS)
Format: cell-based, human
setup conditions: 72 h MTS assay
pIC50: −log10 of the molar value.
endpoint: pIC50

>>> recorded_number("O=C1CCCC2=C1C(c1cccs1)c1ccc3ccccc3c1N2 (racemic) [Compound 9]")
6.00
>>> recorded_number("O=C1CCCC2=C1C(c1ccc3c(c1)OCO3)c1ccc3ccccc3c1N2 (stereo not drawn) [Compound 6]")
5.49
>>> recorded_number("COc1cc2c(c(OC)c1OC)-c1ccc(OC)c(=O)cc1[C@@H](NC(C)=O)CC2 [Colchicine, colchicine, reference compound]")
7.60

====

System: MDA-MB-231
procedure text: Cytotoxicity assay (MTS)
Assay type: cell-based, human
setup conditions: Homo sapiens, MDA-MB-231; 72 h MTS assay
Procedure: MDA-MB-231, DU-145 and FGH cell lines were plated at a concentration of 4 x 10^3 cells/well in 96-well culture plates (TPP^TM). […] Next, absorbance was measured at 490 nm using a spectrophotometer (SpectraMax Plus384, Molecular Devices). The percentage of unviable cells was determined in relation to the control wells, and at least two independent experiments were carried out for each test compound.
pIC50: −log10 of the molar value.
endpoint: pIC50

>>> recorded_number("O=C1CCCC2=C1[C@@H](c1cccc([N+](=O)[O-])c1)c1ccc3ccccc3c1N2 [Compound 7]")
6.72
